Reported IC50 against SIK2 (Homo sapiens, UniProt Q9H0K1), gathered from multiple publications, appears below.
Sequence (Q9H0K1 whole entry): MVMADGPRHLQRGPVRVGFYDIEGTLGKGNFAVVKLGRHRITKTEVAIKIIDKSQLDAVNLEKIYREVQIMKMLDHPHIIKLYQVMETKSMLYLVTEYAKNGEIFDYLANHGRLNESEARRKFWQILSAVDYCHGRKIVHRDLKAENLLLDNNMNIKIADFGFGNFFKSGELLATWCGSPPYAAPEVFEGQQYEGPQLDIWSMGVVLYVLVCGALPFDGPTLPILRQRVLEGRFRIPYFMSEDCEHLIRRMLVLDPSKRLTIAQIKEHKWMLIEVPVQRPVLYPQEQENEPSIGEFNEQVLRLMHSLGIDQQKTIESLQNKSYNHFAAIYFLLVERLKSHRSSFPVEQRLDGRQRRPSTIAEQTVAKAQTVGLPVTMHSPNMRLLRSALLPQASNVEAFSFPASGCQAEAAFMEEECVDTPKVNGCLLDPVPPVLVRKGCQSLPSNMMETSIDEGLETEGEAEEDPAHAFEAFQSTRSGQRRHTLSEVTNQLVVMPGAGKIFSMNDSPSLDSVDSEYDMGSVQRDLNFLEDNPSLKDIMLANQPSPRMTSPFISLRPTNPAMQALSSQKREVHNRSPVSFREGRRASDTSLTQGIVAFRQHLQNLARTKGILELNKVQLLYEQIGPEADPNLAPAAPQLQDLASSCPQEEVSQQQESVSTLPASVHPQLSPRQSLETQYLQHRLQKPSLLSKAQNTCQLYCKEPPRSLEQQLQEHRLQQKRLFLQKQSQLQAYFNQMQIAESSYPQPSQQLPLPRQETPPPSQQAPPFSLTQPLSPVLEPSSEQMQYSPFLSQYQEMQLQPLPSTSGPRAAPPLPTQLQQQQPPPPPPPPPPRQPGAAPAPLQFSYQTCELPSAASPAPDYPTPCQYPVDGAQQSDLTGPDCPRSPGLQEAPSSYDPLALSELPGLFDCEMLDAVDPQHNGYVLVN

Quote IC50 reported for COc1cc(-c2cnc3cc(OCCN4CCOC[C@@H]4C)ccn23)cc(OC(F)F)c1C(=O)NC1CC1 please.
0.01 to 10 nM

Given COc1cc(-c2cnc3cc(OC4CCCN(C)C4)ccn23)cc(OC)c1C(=O)NCC(F)(F)F (centres unmarked) , respond with its IC50.
100 to 500 nM

Note IC50 for the compound shown: Cc1cccc(C)c1NC(=O)N1C/C=C\COc2cccc(c2)Nc2cc1ncn2
9.72 nM

Give the reported value of IC50 for this record: CNc1cc(-c2cnc3cc(OCCN(C)C)ccn23)cc(OC(F)F)c1C(=O)NC1CC1
0.01 to 10 nM

Respond only with IC50 recorded for COc1cc(-c2cnc3cc(OCCN4CCOCC4C#N)ccn23)cc(OC(F)F)c1C(=O)NC1CC1 (centres unmarked)
0.01 to 10 nM

Report IC50, nothing else, for this compound: COc1cc(-c2cnc3cc(OC(C)(C)CO)ccn23)cc(OC(F)F)c1C(=O)NC1CC1
> 500 nM

For the compound CCn1cc(-c2cc(C(F)F)c3c(-c4cc(OC)c(C(N)=O)c(OC(F)F)c4)n(C)nc3c2)cn1 , give its reported IC50.
13.7 nM

Look up and state reported IC50 for COc1cc(-c2cnc3cc(OCCCN4CCC(F)(C(=O)O)CC4)ccn23)cc(OC(F)F)c1C(=O)NC1CC1
0.01 to 10 nM
